Measured values drawn from ChEMBL document CHEMBL3414535 for this set.

TARGET ENTITY: Bifunctional protein GlmU (Escherichia coli (strain K12), UniProt P0ACC7)
Sequence (P0ACC7 whole entry): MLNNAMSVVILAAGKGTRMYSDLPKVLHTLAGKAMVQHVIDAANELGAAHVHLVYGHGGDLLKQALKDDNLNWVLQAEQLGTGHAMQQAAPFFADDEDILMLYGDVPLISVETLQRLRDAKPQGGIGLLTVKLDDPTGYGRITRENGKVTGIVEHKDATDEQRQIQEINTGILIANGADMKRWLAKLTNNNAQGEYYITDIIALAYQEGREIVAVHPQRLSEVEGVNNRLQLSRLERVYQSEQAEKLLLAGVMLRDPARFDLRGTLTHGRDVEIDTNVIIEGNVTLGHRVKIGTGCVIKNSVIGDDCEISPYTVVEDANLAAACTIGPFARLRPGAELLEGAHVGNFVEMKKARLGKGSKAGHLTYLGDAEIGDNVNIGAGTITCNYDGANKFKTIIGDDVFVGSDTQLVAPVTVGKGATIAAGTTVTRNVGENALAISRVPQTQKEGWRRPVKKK
ASSAY NAME: Inhibition of Escherichia coli GlmU acetyltransferase activity assessed as coenzyme A production using acetyl CoA substrate
pIC50: −log10 of the molar value.
QUANTITY NAME: pIC50

COc1cc(OC)c(S(=O)(=O)N2Cc3ccccc3Oc3ccccc32)cc1NC(=O)CCC(=O)O :: 7.52
COc1cc(OC)c(S(=O)(=O)Nc2ccc(C)cc2)cc1NC(C)=O :: 4.68
COc1cc(OC)c(S(=O)(=O)N2c3ccccc3CC[C@@H]2C)cc1NC(=O)COc1ccc(C(C)=O)cc1 :: 3.70
COc1cc(OC)c(S(=O)(=O)N2c3ccccc3Oc3ccccc32)cc1NC(=O)Cc1ccnc(F)c1 :: 7.05
COc1cc(OC)c(S(=O)(=O)N2c3ccccc3CC[C@@H]2C)cc1NC(=O)[C@@H]1[C@@H](C)[C@H]1C(=O)O :: 6.40

[P] COc1cc(OC)c(S(=O)(=O)N2c3ccccc3CC[C@H]2C)cc1NC(=O)NCC(=O)O
[Q] COc1cc(OC)c(S(=O)(=O)NCc2ccccc2N2CCC(CO)CC2)cc1NC(C)=O
[R] COc1cc(OC)c(S(=O)(=O)N(c2ccccc2)C(C)C)cc1NC(C)=O
[S] COc1cc(OC)c(S(=O)(=O)Nc2ccccc2F)cc1NC(C)=O
Please rank these molecules by pIC50 in descending order. // format: requested-order list of labels P, R, S, Q

* * *

TARGET ENTITY: Bifunctional protein GlmU (Escherichia coli (strain K12))
ASSAY NAME: Inhibition of Escherichia coli GlmU acetyltransferase activity assessed as coenzyme A production using acetyl CoA substrate at 100 uM
QUANTITY NAME: inhibition (%)

Recorded results for 3 compounds are shown here.
O=C(Nc1nc(S(=O)(=O)Cc2ccccc2)ns1)c1ccccc1 :: 15.8
CCOC(=O)c1c(S(=O)(=O)NCC(=O)Nc2ccccc2)c(C)n(C)c1C :: 15.2
CCOC(=O)c1cc(S(=O)(=O)N2CCCC2C(=O)NC(C)C)cn1C (stereo unspecified) :: 10.3

[I] O=S(=O)(Nc1cc(F)cc(F)c1)c1c[nH]c2ncccc12
[II] CCOC(=O)c1cc(S(=O)(=O)N2CCCC2C(=O)N2CCCC2)cn1C (stereo unspecified)
[III] COC(=O)c1cc(S(=O)(=O)Nc2cccc(Cl)c2C)c[nH]1
Sort these compounds on inhibition so the largest reading comes first. // rank by listing labels in the order requested I, II, III

* * *

TARGET ENTITY: Bifunctional protein GlmU (Escherichia coli (strain K12))
ASSAY NAME: Inhibition of Escherichia coli GlmU acetyltransferase activity assessed as coenzyme A production using acetyl CoA substrate at 100 uM
QUANTITY NAME: inhibition (%)

[I] O=S(=O)(NCc1ccccn1)c1ccc(-c2ccno2)o1
[II] Cc1ccc(S(=O)(=O)n2ccn(C(=O)C(C)Oc3ccccc3)c2=O)cc1 (configuration not stated)
[III] COc1ccccc1NS(=O)(=O)c1cc(-c2cnc(C3CC3)o2)ccc1C
Sort ascending by inhibition: all records listed above. List each label, following the requested order. II, III, I
(II: 11.1%, III: 21.1%, I: 30.6%)

* * *

TARGET ENTITY: Bifunctional protein GlmU (Escherichia coli (strain K12), UniProt P0ACC7)
ASSAY NAME: Inhibition of Escherichia coli GlmU acetyltransferase activity assessed as coenzyme A production using acetyl CoA substrate
QUANTITY NAME: IC50 (nM)

COc1cc(OC)c(S(=O)(=O)N2c3ccccc3CC[C@H]2C)cc1NC(C)=O :: 1500

[1] COc1cc(OC)c(S(=O)(=O)Nc2cccc(C)c2)cc1NC(C)=O
[2] COc1cc(OC)c(S(=O)(=O)N2c3ccccc3CC[C@H]2C)cc1NC(=S)NCC(=O)O
Among 1 and 2 , whose measured IC50 is the smaller figure? // respond with label for picked entry 2

[1] COc1cc(OC)c(S(=O)(=O)N(c2ccccc2)c2ccc(N)cc2)cc1NC(=O)CCC(=O)O
[2] COc1cc(OC)c(S(=O)(=O)N(C)c2ccccc2)cc1NC(C)=O
[3] COc1cc(OC)c(S(=O)(=O)NCc2ccccc2N2CCC(CC(=O)O)CC2)cc1NC(=O)CCC(=O)O
Your job: order these 3 records by IC50, ascending. Answer by listing the labels in the requested order. 1, 3, 2
(1: 20 nM, 3: 400 nM, 2: 3000 nM)

[P] COc1cc(OC)c(S(=O)(=O)NCc2ccccc2-c2ccc(C(=O)O)cc2)cc1NC(=O)CCC(=O)O
[Q] COc1cc(OC)c(S(=O)(=O)NCc2ccccc2N2CCCCC2)cc1NC(C)=O
[R] COc1cc(OC)c(S(=O)(=O)N2c3ccccc3Oc3ccccc32)cc1NC(=O)[C@H]1[C@@H](C)[C@H]1C(=O)O
Returns the items ordered by IC50, from maximum to minimum. Please express your ranking as an ordered list of the labels. Q, P, R

[1] CCN(c1ccccc1C)S(=O)(=O)c1cc(NC(C)=O)c(OC)cc1OC
[2] COc1cc(OC)c(S(=O)(=O)N2c3ccccc3CC[C@@H]2C)cc1NC(=O)Cc1ccnc(F)c1
[3] COc1cc(OC)c(S(=O)(=O)NCc2ccccc2N2CCC(COC(=O)CCC(=O)O)CC2)cc1NC(=O)CCC(=O)O
[4] COc1cc(OC)c(S(=O)(=O)N2c3ccccc3CC[C@H]2C)cc1NC(=O)CSCC(=O)O
# ascending order, key=IC50 I would appreciate it if you listed the labels in the requested order. 4, 3, 2, 1
(4: 100 nM, 3: 250 nM, 2: 800 nM, 1: 15000 nM)
